Each item that follows carries a reported RP-LC retention time.
- protocolText: gradient 5% acetonitrile 3 min, to 50% in 2 min, to 85% in 15 min, held 3 min, 100 µL/min
- condition: column: Zorbax Extend-C18 2.1 x 50 mm; eluents: water / acetonitrile, 0.1% formic acid
experimentalReadout: RP-LC retention time (s)

{"compound": "COc1ccc(Cn2nnc3cc(C(=O)Nc4cc(C)on4)ccc32)cc1", "unitsOfMeasure": "s", "readoutNumber": 817}
{"compound": "CC(C)C(=O)N1CC[C@H](CO)[C@H](NC(=O)C2CC2)C1", "unitsOfMeasure": "s", "readoutNumber": 583}
{"compound": "CCc1ccc(S(=O)(=O)N2CCc3c(c(-c4nnc(-c5ccc(F)cc5)o4)nn3C)C2)cc1", "unitsOfMeasure": "s", "readoutNumber": 1050}
{"compound": "CC1CCN(c2cc(-n3cnc(C(=O)NC4CCCCC4)c3)ncn2)CC1", "unitsOfMeasure": "s", "readoutNumber": 1030}
{"compound": "O=C(CCc1nc2ccccc2[nH]1)N1CCC(c2noc(-c3ccccn3)n2)C1 (stereo not given)", "unitsOfMeasure": "s", "readoutNumber": 581}
{"compound": "Cc1ccc(F)c(NC(=O)c2c(O)c3cccnc3n(-c3ccc(F)cc3)c2=O)c1", "unitsOfMeasure": "s", "readoutNumber": 1140}
{"compound": "COc1cc(C(O)CCBr)c(OC)cc1C (stereo not given)", "unitsOfMeasure": "s", "readoutNumber": 1020}
{"compound": "COc1cc(C)nc(-n2nc(C)cc2OC)n1", "unitsOfMeasure": "s", "readoutNumber": 711}
{"compound": "Cc1ccccc1CNC(=O)c1cn(-c2cc(-c3nc(C4CC4)no3)ccn2)cn1", "unitsOfMeasure": "s", "readoutNumber": 982}
{"compound": "Fc1ccc(-c2nc(-c3ccc(-n4cccn4)nc3)no2)c(Cl)c1", "unitsOfMeasure": "s", "readoutNumber": 1300}
{"compound": "CCCN(CCC)CCCNC(=O)C1CCCN(c2ncc(-c3cccc(F)c3)cn2)C1 (stereo not given)", "unitsOfMeasure": "s", "readoutNumber": 747}
{"compound": "COCC(=O)Nc1cc2c(cc1N1CCCCC1)n(C)c(=O)c(=O)n2C", "unitsOfMeasure": "s", "readoutNumber": 775}
{"compound": "COc1ccccc1C(=O)N1CCc2cn(C)c3cccc(c23)C1", "unitsOfMeasure": "s", "readoutNumber": 920}
{"compound": "Cc1nn(-c2cc(N(C)C)ncn2)c(C)c1CCC(=O)NCc1ccco1", "unitsOfMeasure": "s", "readoutNumber": 684}
{"compound": "CCOC(=O)c1nc(Nc2cccc(C)c2)c2ccccc2n1", "unitsOfMeasure": "s", "readoutNumber": 890}
{"compound": "COc1ccc(OC)c(-c2cn3ccn(-c4ccc(F)c(Cl)c4)c(=O)c3n2)c1", "unitsOfMeasure": "s", "readoutNumber": 929}
{"compound": "Cc1cccc(NC(=O)Cn2cnc3nc(N4CCCC(C(=O)NC(C)C)C4)sc3c2=O)c1C (stereo not given)", "unitsOfMeasure": "s", "readoutNumber": 712}
{"compound": "CC1(C)Cc2cccc(OCc3ccc(C(=O)NCCN4CCOCC4)cc3)c2O1", "unitsOfMeasure": "s", "readoutNumber": 586}
{"compound": "Cc1c(-c2nnc(C3CCC3)o2)c(S(=O)(=O)NCc2ccc(Cl)cc2)c(C)n1C", "unitsOfMeasure": "s", "readoutNumber": 1010}
{"compound": "COc1ccccc1N1CCN(Cc2nc(-c3ccc(N4CCCC(C)C4)nc3)no2)CC1 (stereo not given)", "unitsOfMeasure": "s", "readoutNumber": 848}
